QUANTITY: glass transition temperature (°C)

Solved cases (6 shown):
compound="*C1C(=O)OC(=O)C1C1C2CC(C(=O)OC(C)CC)C(C2)C1* (repeat unit)" endpoint_result=175.00
compound="*CC(O)COc1ccc(S(=O)(=O)c2ccc(OCC(O)COc3ccc(S(=O)(=O)c4ccc(O*)c(C)c4)cc3C)cc2)cc1 (repeat unit)" endpoint_result=142.50
compound="*CCCCCCCCCNC(=S)N* (repeat unit)" endpoint_result=48.00
compound="*Oc1ccc(S(=O)(=O)c2ccc(-c3ccc(-c4ccc(S(=O)(=O)c5ccc(*)cc5)cc4)cc3)cc2)cc1 (repeat unit)" endpoint_result=311.00
compound="*Nc1cccc(NC(=O)c2cc(C(*)=O)cc(S(=O)(=O)c3ccccc3)c2)c1 (repeat unit)" endpoint_result=277.00
compound="*CCN(*)C(=O)CCC (repeat unit)" endpoint_result=42.00

(a) *CC(=O)Nc1ccc(Oc2ccc(Oc3ccc(NC(=O)c4ccc5c(c4)C(=O)N(*)C5=O)cc3)cc2)cc1 (repeat unit)
(b) *CC(O)CN(*)c1cc(C)c(/N=N/c2ccc([N+](=O)[O-])cc2)c(C)c1 (repeat unit)
(c) *CNC(=O)CCCCC(=O)NCC1COC(*)CO1 (repeat unit)
Sort the compounds on glass transition temperature; start with the lowest figure. Order the labels as requested and list them.
c, b, a
(c: 93.00 °C, b: 152.00 °C, a: 242.00 °C)

###

QUANTITY: glass transition temperature (°C)

Solved cases (2 shown):
compound="*c1ccc(Oc2ccc(C(=O)c3ccc(Oc4ccc(-c5c6c(c(*)c7ccccc57)C(=O)N(C)C6=O)cc4)cc3)cc2)cc1 (repeat unit)" endpoint_result=283.00
compound="*CC(*)(C)C(=O)NC(=O)OC(C)COc1c(Br)cc(S(=O)(=O)c2cc(Br)c(OCC(C)O)c(Br)c2)cc1Br (repeat unit)" endpoint_result=45.00

(a) *c1ccc2c(c1)C(=O)N(c1cccc(C(=O)Nc3ccc(NC(=O)c4cccc(N5C(=O)c6ccc(C(*)(C(F)(F)F)C(F)(F)F)cc6C5=O)c4)cc3)c1)C2=O (repeat unit)
(b) *Oc1cccc(C(=O)c2ccc(Oc3ccc(C(=O)c4ccc(*)cc4)cc3)cc2)c1 (repeat unit)
(c) *CC(*)(C)C(=O)OCCCCCC(=O)Oc1ccc(OC(=O)c2ccc(OC)cc2)cc1 (repeat unit)
(d) *CCOCCOC(=O)CCCCC(=O)O* (repeat unit)
(e) *CCC[Si](*)(C)O[Si](C)(C)CCCOc1ccc(C(=O)Oc2ccc(C#N)cc2)cc1 (repeat unit)
Rank descending by glass transition temperature. Order the labels as requested and list them.
a, b, c, e, d
(a: 311.00 °C, b: 146.00 °C, c: 40.00 °C, e: -19.10 °C, d: -51.00 °C)

###

QUANTITY: glass transition temperature (°C)

Solved cases (2 shown):
compound="*OP(=O)(Oc1ccc(C(C)(C)c2ccc(*)cc2)cc1)Oc1c(Cl)c(Cl)c(Cl)c(Cl)c1Cl (repeat unit)" endpoint_result=130.00
compound="*CC(*)OCCCCCCCCCC (repeat unit) [Poly(vinyl n-decyl ether) ]" endpoint_result=-76

(a) *C(=O)c1ccc2c(c1)C(=O)N(c1ccc(C(=O)c3ccc(Cc4ccc(C(=O)c5ccc(N6C(=O)c7ccc(*)cc7C6=O)cc5)cc4)cc3)cc1)C2=O (repeat unit)
(b) *CC(*)(C)C(=O)NC(=O)OCCOc1ccc(S(=O)(=O)c2ccc(OCCO)cc2)cc1 (repeat unit)
Between the two listed entries a and b , which has its glass transition temperature at the higher number? Lab note: record the label of whichever item you select.
a

###

QUANTITY: glass transition temperature (°C)

Solved cases (5 shown):
compound="*c1ccc2c(c1)C(=O)N(c1ccc(Oc3ccc(N4C(=O)c5ccc(C(C)(C)CCCCCCCCC(*)(C)C)cc5C4=O)cc3)cc1)C2=O (repeat unit)" endpoint_result=123.7
compound="*CC(*)C(=O)OC1CC2CCC1(C)C2(C)C (repeat unit)" endpoint_result=100.00
compound="*c1ccc(-c2sc(-c3cc(CCCC)c(*)s3)cc2CCCC)cc1 (repeat unit)" endpoint_result=122.30
compound="*OC(=O)c1ccc(SCCCCSc2ccc(C(*)=O)cc2)cc1 (repeat unit)" endpoint_result=62.00
compound="*[O][Sn]([CH2]CCC)([CH2]CCC)[O]C(=O)c1ccc(C(*)=O)cc1 (repeat unit)" endpoint_result=315.00

(1) *CCCCCCOC(=O)OCCOC(=O)OCCCCCCOc1ccc(Oc2ccc(O*)cc2)cc1 (repeat unit)
(2) *Oc1ccc(C2(c3ccc(Oc4ccc(C(=O)c5ccc(C(=O)c6ccc(*)cc6)cc5)cc4)cc3)c3ccccc3-c3ccccc32)cc1 (repeat unit)
Between the two listed entries 1 and 2 , which has its glass transition temperature at the higher number? Lab note: record the label of whichever item you select.
2
(2: 243.00 °C, 1: -4.00 °C)

###

QUANTITY: glass transition temperature (°C)

compound="*SCC(=O)N/N=C/c1ccc(OCCCCCCCCCCOc2ccc(/C=N/NC(=O)CSc3nnc(*)s3)cc2OC)c(OC)c1 (repeat unit)" endpoint_result=156.00
compound="*Oc1cccc(C(=O)OCC(F)(F)C(F)(F)C(F)(F)COC(=O)c2cccc(*)c2)c1 (repeat unit)" endpoint_result=20.00
compound="*C(C)C(*)C(=O)OCC (repeat unit)" endpoint_result=157.00
compound="*CCCCC[Si](*)(C)c1ccccc1 (repeat unit)" endpoint_result=-10.40

(P) *CCCCCCOc1ccc(NC(=O)c2cc(C(=O)Nc3ccc(O*)cc3)cc(C(C)(C)C)c2)cc1 (repeat unit)
(Q) *CC(*)(C)C(=O)OCCCCCCCCCCOc1ccc2cc(C(=O)Oc3ccccc3)ccc2c1 (repeat unit)
(R) *O[Si](C)(C)O[Si](C)(C)O[Si](C)(C)O[Si](C)(c1ccccc1)c1cccc([Si](*)(C)c2ccccc2)c1 (repeat unit)
(S) *CCCCCCNC(=O)CCCCCCCC(=O)N* (repeat unit) [Poly(hexamethylene azelamide)]
Rank descending by glass transition temperature. Order the labels as requested and list them.
P, S, Q, R
(P: 166.00 °C, S: 50.58 °C, Q: 24.00 °C, R: -42.00 °C)

###

QUANTITY: glass transition temperature (°C)

(a) *CC(*)OC(=O)c1ccc(OC(C)=O)cc1 (repeat unit)
(b) *CCCCCCCCCCCCCCC(=O)O* (repeat unit)
Which gives the smaller glass transition temperature number: a or b ? Lab note: record the label of whichever item you select.
b

###

QUANTITY: glass transition temperature (°C)

Solved cases (4 shown):
compound="*CN1C(=O)c2ccc(C(c3ccc4c(c3)C(=O)N(Cc3nc5cc(-c6ccc7oc(*)nc7c6)ccc5o3)C4=O)(C(F)(F)F)C(F)(F)F)cc2C1=O (repeat unit)" unit_annotation=°C endpoint_result=231.00
compound="*CN1C(=O)c2ccc(C(c3ccc4c(c3)C(=O)N(Cc3nnc(-c5ccc(Oc6ccc(-c7nnc(*)o7)cc6)cc5)o3)C4=O)(C(F)(F)F)C(F)(F)F)cc2C1=O (repeat unit)" unit_annotation=°C endpoint_result=210.00
compound="*CC(*)c1ccc(C)c(C)c1 (repeat unit) [Poly(3,4-dimethyl styrene) ]" unit_annotation=°C endpoint_result=111
compound="*c1cccc(P(C)(=O)c2cccc(N3C(=O)c4ccc(NC(=O)OCCOc5ccc(C(C)(C)c6ccc(OCCOC(=O)Nc7ccc8c(c7)C(=O)N(*)C8=O)cc6)cc5)cc4C3=O)c2)c1 (repeat unit)" unit_annotation=°C endpoint_result=211.00

(A) *CCCS(=O)(=O)c1ccc(/N=N/c2ccc(N(CCCC)CC(=O)O*)cc2)cc1 (repeat unit)
(B) *C/C=C/COC(=O)C(Cc1ccccc1)NC(=O)CCCCC(=O)NC(Cc1ccccc1)C(=O)O* (repeat unit)
Which gives the smaller glass transition temperature number: A or B ? Lab note: record the label of whichever item you select.
B
(B: 61.00 °C, A: 92.40 °C)

###

QUANTITY: glass transition temperature (°C)

(a) *Oc1ccc(C(=O)c2ccc(C(=O)c3ccc(*)cc3)cc2)cc1 (repeat unit)
(b) *c1ccc(Oc2ccc(C(=O)c3cccc(C(=O)c4ccc(Oc5ccc(-n6c(=O)c7cc8c(=O)n(*)c(=O)c8cc7c6=O)cc5)cc4)n3)cc2)cc1 (repeat unit)
Which gives the smaller glass transition temperature number: a or b ? Lab note: record the label of whichever item you select.
a
(a: 157.00 °C, b: 324.60 °C)

###

QUANTITY: glass transition temperature (°C)

compound="*=NP(=NP(=NC(=*)Oc1ccc(C(C)(C)C)cc1)(Oc1ccc(C(C)(C)C)cc1)Oc1ccc(C(C)(C)C)cc1)(Oc1ccc(C(C)(C)C)cc1)Oc1ccc(C(C)(C)C)cc1 (repeat unit)" unit_annotation=°C endpoint_result=74.00

(A) *Nc1cc(NC(=O)c2cc(OCCN(C)c3ccc([N+](=O)[O-])cc3)cc(C(*)=O)c2)cc(C(=O)OC2CC(C)CCC2C(C)C)c1 (repeat unit)
(B) *CCCCOCC(O)CN(CC(O)CO*)c1ccc(N(C)C)cc1 (repeat unit)
Between the two listed entries A and B , which has its glass transition temperature at the higher number? Lab note: record the label of whichever item you select.
A
(A: 193.00 °C, B: 31.00 °C)

(P) *Oc1ccc(C2(c3ccc(OC(=O)c4ccc(C(*)=O)cc4)cc3)CCCCC2)cc1 (repeat unit)
(Q) *CC(*)OC(=O)OCCC(F)(F)C(F)(F)C(F)(F)C(F)(F)C(F)(F)C(F)(F)F (repeat unit)
Which gives the smaller glass transition temperature number: P or Q ? Lab note: record the label of whichever item you select.
Q
